Source listed as patent US20240238424A1.

# study.target: GSPT1 (Homo sapiens, UniProt P15170+Q96SW2)
# Construct: host or cells: HEK293 LgBiT cell line
# Sequence (P15170 whole entry): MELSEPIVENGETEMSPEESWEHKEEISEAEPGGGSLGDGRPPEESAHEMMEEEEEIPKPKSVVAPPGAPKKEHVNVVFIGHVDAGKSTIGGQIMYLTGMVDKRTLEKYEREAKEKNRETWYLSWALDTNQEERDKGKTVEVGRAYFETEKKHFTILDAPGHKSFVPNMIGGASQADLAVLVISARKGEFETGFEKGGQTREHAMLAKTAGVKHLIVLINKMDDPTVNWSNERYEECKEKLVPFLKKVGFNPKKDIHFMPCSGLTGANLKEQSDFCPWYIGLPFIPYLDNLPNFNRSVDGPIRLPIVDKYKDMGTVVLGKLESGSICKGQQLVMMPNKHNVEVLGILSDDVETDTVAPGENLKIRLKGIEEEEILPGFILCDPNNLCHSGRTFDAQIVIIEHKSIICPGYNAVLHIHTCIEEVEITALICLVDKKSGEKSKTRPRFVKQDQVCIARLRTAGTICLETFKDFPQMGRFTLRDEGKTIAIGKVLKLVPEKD
# Sequence (Q96SW2 whole entry): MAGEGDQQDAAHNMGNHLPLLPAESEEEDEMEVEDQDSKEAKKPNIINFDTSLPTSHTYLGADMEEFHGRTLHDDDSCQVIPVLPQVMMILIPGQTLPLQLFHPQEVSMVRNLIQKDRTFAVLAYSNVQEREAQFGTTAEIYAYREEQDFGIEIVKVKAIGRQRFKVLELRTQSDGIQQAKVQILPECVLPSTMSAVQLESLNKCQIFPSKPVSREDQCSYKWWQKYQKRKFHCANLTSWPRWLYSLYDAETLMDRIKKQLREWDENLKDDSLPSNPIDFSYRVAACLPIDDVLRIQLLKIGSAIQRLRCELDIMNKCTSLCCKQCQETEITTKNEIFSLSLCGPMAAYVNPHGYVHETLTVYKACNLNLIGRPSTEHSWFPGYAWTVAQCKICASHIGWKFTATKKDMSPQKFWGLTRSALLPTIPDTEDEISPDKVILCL
# Sequence (Q16531 whole entry partner): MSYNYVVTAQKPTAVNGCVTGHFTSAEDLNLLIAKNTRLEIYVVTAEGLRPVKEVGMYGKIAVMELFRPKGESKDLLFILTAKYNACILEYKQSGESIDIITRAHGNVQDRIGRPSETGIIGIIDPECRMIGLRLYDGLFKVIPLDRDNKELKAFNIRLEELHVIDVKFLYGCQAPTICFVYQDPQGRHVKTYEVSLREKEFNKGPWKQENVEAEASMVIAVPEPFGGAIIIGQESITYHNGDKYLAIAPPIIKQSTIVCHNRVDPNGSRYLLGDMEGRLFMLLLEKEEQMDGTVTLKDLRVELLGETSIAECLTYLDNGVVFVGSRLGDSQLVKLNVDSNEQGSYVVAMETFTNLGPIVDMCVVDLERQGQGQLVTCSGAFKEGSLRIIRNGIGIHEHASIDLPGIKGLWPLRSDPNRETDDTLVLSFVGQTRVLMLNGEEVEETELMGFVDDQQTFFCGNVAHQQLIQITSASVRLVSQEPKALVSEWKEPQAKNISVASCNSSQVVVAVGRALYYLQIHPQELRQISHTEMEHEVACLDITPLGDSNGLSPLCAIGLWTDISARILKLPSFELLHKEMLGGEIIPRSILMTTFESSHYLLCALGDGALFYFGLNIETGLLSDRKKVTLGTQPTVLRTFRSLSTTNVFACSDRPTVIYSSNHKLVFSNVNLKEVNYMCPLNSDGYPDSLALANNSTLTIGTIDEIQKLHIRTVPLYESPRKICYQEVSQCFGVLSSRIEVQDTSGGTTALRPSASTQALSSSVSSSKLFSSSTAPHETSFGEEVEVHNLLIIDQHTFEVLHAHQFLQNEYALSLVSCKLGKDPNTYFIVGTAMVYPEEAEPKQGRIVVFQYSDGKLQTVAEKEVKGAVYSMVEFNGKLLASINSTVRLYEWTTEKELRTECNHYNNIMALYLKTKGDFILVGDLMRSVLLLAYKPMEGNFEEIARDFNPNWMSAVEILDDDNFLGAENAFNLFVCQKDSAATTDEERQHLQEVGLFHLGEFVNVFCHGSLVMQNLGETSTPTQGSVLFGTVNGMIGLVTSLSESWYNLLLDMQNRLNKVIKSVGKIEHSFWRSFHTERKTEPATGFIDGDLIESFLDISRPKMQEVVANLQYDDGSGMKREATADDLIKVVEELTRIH
# measurement.protocol: GSPT1 HiBit degradation assay
# Type: cell-based
# condition.summary: Table 3A; HEK293 LgBiT cells expressing GSPT1_HiBiT, luminescence after 6 hours
reported.metric: DC50

>>> result("C=CC(=O)Nc1cc(Nc2nccc(-c3cn(C)c4ccccc34)n2)c(OC)cc1N(C)CCN(C)CCOCCOCCOCCOCCOCCCCCc1cc(Cl)cc(NC(=O)NCc2ccc3c(c2)CN(C2CCC(=O)NC2=O)C3=O)c1 (stereo not shown)")
"0.25 to 5 µM"
>>> result("COc1cc(N(C)CCN(C)C)c(NC(=O)/C=C/CN(C)CCOCCOCCOCCOCCOCCOCCOCCOCCOCCCCCc2cc(Cl)cc(NC(=O)NCc3ccc4c(c3)CN(C3CCC(=O)NC3=O)C4=O)c2)cc1Nc1nccc(-c2cn(C)c3ccccc23)n1 (stereo not shown)")
"0.25 to 5 µM"

Quick check: DC50 of CCC(=O)N1CCN(c2nc(OC[C@@H]3CCCN3CCOCCOCCOCCOCCOCCOCCOCCOCCOCCOCCOCCOCCOCCOCCCCCCCCc3cc(Cl)cc(NC(=O)NCc4ccc5c(c4)CN(C4CCC(=O)NC4=O)C5=O)c3)nc3c2CCN(c2cccc4cccc(Cl)c24)C3)C[C@@H]1CC#N (stereo partly shown) ?
0.25 to 5 µM

Next entry: CN(C/C=C/C(=O)N1CCN(c2nc(OC[C@@H]3CCCN3C)nc3c2CCN(c2cccc4cccc(Cl)c24)C3)C[C@@H]1CC#N)CCOCCOCCOCCOCCOCCCCCc1cc(Cl)cc(NC(=O)NCc2ccc3c(c2)CN(C2CCC(=O)NC2=O)C3=O)c1 (stereo partly shown)
0.25 to 5 µM

----------
# Tested on: 22RV1 cells
# measurement.protocol: Cellular growth inhibition assay (CTG), 22RV1 cells
# Format: cell-based
# condition.summary: Homo sapiens, CellTiter-Glo 2.0, day-5
reported.metric: GI50

// solved cases for GI50 follow
>>> result("CC1(C)[C@H](NC(=O)c2ccc(OCCOCCOCCOCCOCCOCCOCCOCCOCCOCCOCCOc3cc(Cl)cc(NC(=O)NCc4ccc5c(c4)CN(C4CCC(=O)NC4=O)C5=O)c3)cc2)C(C)(C)[C@H]1Oc1ccc(C#N)c(Cl)c1 (stereo partly shown)")
"100 to 1000 nM"
>>> result("CC1(C)[C@H](NC(=O)c2ccc(OCCOCCOCCOCCOCCOCCOCCc3cc(Cl)cc(NC(=O)NCc4ccc5c(c4)CN(C4CCC(=O)NC4=O)C5=O)c3)cc2)C(C)(C)[C@H]1Oc1ccc(C#N)c(Cl)c1 (stereo partly shown)")
"< 100 nM"
>>> result("CC1(C)[C@H](NC(=O)c2ccc(OCCOCCOCCOCCOCCOCCOCCOCCOCCOc3cc(Cl)cc(NC(=O)NCc4ccc5c(c4)CN(C4CCC(=O)NC4=O)C5=O)c3)cc2)C(C)(C)[C@H]1Oc1ccc(C#N)c(Cl)c1 (stereo partly shown)")
"< 100 nM"

Quick check: GI50 of CC1(C)[C@H](NC(=O)c2ccc(OCCOCCOCCOCCOCCOCCOCCOc3cc(Cl)cc(NC(=O)NCc4ccc5c(c4)CN(C4CCC(=O)NC4=O)C5=O)c3)cc2)C(C)(C)[C@H]1Oc1ccc(C#N)c(Cl)c1 (stereo partly shown) ?
< 100 nM
